measured target: human Lp-PLA2 (Homo sapiens)
Construct: purchased Cayman Chemical
Sequence (Q13093 22-441): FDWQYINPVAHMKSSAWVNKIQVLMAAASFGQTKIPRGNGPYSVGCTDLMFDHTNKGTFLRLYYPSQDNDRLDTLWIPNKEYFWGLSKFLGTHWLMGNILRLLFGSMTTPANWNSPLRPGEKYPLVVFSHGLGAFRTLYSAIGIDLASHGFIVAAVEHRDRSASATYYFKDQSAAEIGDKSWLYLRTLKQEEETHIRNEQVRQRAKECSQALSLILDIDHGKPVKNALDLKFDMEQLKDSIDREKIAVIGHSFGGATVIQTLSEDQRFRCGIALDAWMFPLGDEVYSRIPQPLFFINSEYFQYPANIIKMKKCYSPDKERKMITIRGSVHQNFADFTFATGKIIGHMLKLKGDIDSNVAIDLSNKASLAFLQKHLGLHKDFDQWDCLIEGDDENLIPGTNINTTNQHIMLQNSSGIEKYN
assay overview: Lp-PLA2 inhibition assay (UV-spectrometry, 2-thio-PAF/DTNB, 96-well)
Format: biochemical
assay setup: Table 1; substrate 2-thio-PAF, DTNB, 0.1M Tris-HCl pH 7.2; read-out: Lp-PLA2 (IC50)
Protocol: The ability of synthesized indolizine derivatives (6) to inhibit (IC50 values, μM) human Lp-PLA2 (Cayman Chemical, Ann Arbor, Mich.) was determined based on a UV-spectrometry assay using 96-well plate format. […] Phospholipase inhibition by synthesized compounds toward human Lp-PLA2, sPLA2 IIA and IV (Cayman Chemical Company, Ann Arbor, Mich.) are evaluated using a 96-well plate format. […] The substrate hydrolysis by PLA2 is monitored by UV-spectroscopy. […]
Note to self: use rule met only for IC50 readings below 700 nM; a reading exactly at 700 nM still gets rule not met.

Answered cases to consult:
| mol | answer label |
| --- | --- |
| CC(=O)c1c(-c2ccc(C)cc2)c(C(=O)c2ccccc2)c2ccccn12 | rule met |
| CC(=O)c1c(-c2ccccc2)c(C(=O)c2ccc(F)c(F)c2)c2ccccn12 | rule not met |
| CC(=O)c1c(-c2ccccc2)c(C(=O)c2ccc(C)cc2)c2ccccn12 | rule met |
| CC(=O)c1c(-c2ccccc2)c(C(=O)c2ccccc2)c2ccccn12 | rule met |
| CC(=O)c1c(-c2ccccc2)c(C(=O)c2ccc(F)cc2)c2ccccn12 | rule met |

Strictly below 700 nM: is that where IC50 of CSc1ccc(C(=O)c2c(-c3ccccc3)c(C(C)=O)n3ccccc23)cc1 sits?
rule met

Item CC(=O)c1c(-c2ccccc2)c(C(=O)c2ccc(Br)cc2)c2ccccn12 : IC50 beneath 700 nM, strictly?
rule not met

Please state whether IC50 is below 700 nM for CCCCc1ccc(C(=O)c2c(-c3ccccc3)c(C(C)=O)n3ccccc23)cc1
rule met

Input CC(=O)c1c(-c2ccccc2)c(C(=O)c2ccc(C(C)C)cc2)c2ccccn12 ; condition: IC50 strictly below 700 nM. Does it hold?
rule not met

I'd appreciate it if you could check whether CC(=O)c1c(-c2ccccc2)c(C(=O)c2ccc(C(F)(F)F)cc2)c2ccccn12 has IC50 smaller than 700 nM.
rule met

Hello, is IC50 of the following compound strictly smaller than 700 nM? COc1ccc(C(=O)c2c(-c3ccccc3)c(C(C)=O)n3ccccc23)cc1
rule not met

----------
measured target: sPLA2 IIA (Homo sapiens, UniProt P14555)
Construct: purchased Cayman Chemical Company
Sequence (P14555 21-144): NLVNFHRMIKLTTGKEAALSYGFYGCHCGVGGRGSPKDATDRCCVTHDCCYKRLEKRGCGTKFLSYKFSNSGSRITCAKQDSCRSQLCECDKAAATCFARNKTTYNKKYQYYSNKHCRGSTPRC
assay overview: Phospholipase A2 (PLA2) inhibition assay, sPLA2 IIA
Type: biochemical
assay setup: Table 2; ratio of sPLA2 IIA IC50 to Lp-PLA2 IC50
Method: Phospholipase inhibition by synthesized compounds toward human Lp-PLA2, sPLA2 IIA and IV (Cayman Chemical Company, Ann Arbor, Mich.) are evaluated using a 96-well plate format. In this assay, different concentrations of test compounds (0.001-30 μM) are incubated with the PLA2 enzymes. The substrate hydrolysis by PLA2 is monitored by UV-spectroscopy. […] The concentration of the test compound causing 50% inhibition (IC50, μM) is determined from the concentration-inhibition response curve. […]
value type: Selectivity Index (sPLA2/Lp-PLA2)

| mol | Selectivity Index (sPLA2/Lp-PLA2) |
| --- | --- |
| CSc1ccc(C(=O)c2c(-c3ccccc3)c(C(C)=O)n3ccccc23)cc1 | >40 |
| COc1ccc(C(=O)c2c(-c3ccccc3)c(C(C)=O)n3ccccc23)cc1 | >13.1 |
| CCCCc1ccc(C(=O)c2c(-c3ccccc3)c(C(C)=O)n3ccccc23)cc1 | >33.3 |
| CC(=O)c1c(-c2ccccc2)c(C(=O)c2ccc(C(F)(F)F)cc2)c2ccccn12 | >166.6 |

For CC(=O)c1c(-c2ccccc2)c(C(=O)c2ccc(C(C)C)cc2)c2ccccn12 the molecule record lists Selectivity Index (sPLA2/Lp-PLA2) as >12.5

----------
measured target: human Lp-PLA2 (Homo sapiens)
Construct: purchased Cayman Chemical
assay overview: Lp-PLA2 inhibition assay (UV-spectrometry, 2-thio-PAF/DTNB, 96-well)
Type: biochemical
assay setup: Table 2; read-out: Lp-PLA2 Inhibition (IC50)
Measured log10 of IC50 accompanies every entry in the list below.
Kindly note that the scale is log10 and the underlying IC50 is in nM.

A selection of reference data follows.
| molecule | log10 of IC50 |
| --- | --- |
| CC(=O)c1c(-c2ccccc2)c(C(=O)c2ccc(C(F)(F)F)cc2)c2ccccn12 [Cmpd 7] | 1.78 |
| CC(=O)c1c(-c2ccccc2)c(C(=O)c2ccc(Br)cc2)c2ccccn12 [Cmpd 9] | 2.85 |
| CC(=O)c1c(-c2ccccc2)c(C(=O)c2ccc(C(C)C)cc2)c2ccccn12 [Cmpd 3] | 2.90 |
| CCCCc1ccc(C(=O)c2c(-c3ccccc3)c(C(C)=O)n3ccccc23)cc1 [Cmpd 4] | 2.48 |

Data point: CC(=O)c1c(-c2ccccc2)c(C(=O)c2ccc(Cl)cc2)c2ccccn12 [Cmpd 10] ; log10 of IC50 = 2.97

----------
measured target: sPLA2 IIA (Homo sapiens, UniProt P14555)
Sequence (P14555 21-144): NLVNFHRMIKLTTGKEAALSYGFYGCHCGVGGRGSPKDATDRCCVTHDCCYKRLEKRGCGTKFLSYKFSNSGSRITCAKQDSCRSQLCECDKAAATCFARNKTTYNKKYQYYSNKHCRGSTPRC
pIC50: −log10 of the molar value.
Below is a list of entries, each paired with its recorded pIC50 value.

| mol | pIC50 |
| --- | --- |
| CC(=O)c1c(-c2ccccc2)c(C(=O)c2ccc(C(F)(F)F)cc2)c2ccccn12 | < 5.00 |
| CC(=O)c1c(-c2ccccc2)c(C(=O)c2ccccc2)c2ccccn12 | < 5.00 |
| CC(=O)c1c(-c2ccccc2)c(C(=O)c2ccc(Br)cc2)c2ccccn12 | < 5.00 |
| CC(=O)c1c(-c2ccccc2)c(C(=O)c2ccc(Cl)cc2)c2ccccn12 | < 5.00 |
| CCCCc1ccc(C(=O)c2c(-c3ccccc3)c(C(C)=O)n3ccccc23)cc1 | < 5.00 |
| CC(=O)c1c(-c2ccccc2)c(C(=O)c2ccc(C)cc2)c2ccccn12 | < 5.00 |

Query CSc1ccc(C(=O)c2c(-c3ccccc3)c(C(C)=O)n3ccccc23)cc1 on sPLA2 IIA (Homo sapiens, UniProt P14555); pIC50 returned: < 5.00

Per the reported sPLA2 IIA (Homo sapiens, UniProt P14555) data, COc1ccc(C(=O)c2c(-c3ccccc3)c(C(C)=O)n3ccccc23)cc1 has pIC50 of < 5.00

Lab note: compound CC(=O)c1c(-c2ccccc2)c(C(=O)c2ccc(C(C)C)cc2)c2ccccn12 tested on sPLA2 IIA (Homo sapiens, UniProt P14555); recorded pIC50 was < 5.00

Let me check: CC(=O)c1c(-c2ccccc2)c(C(=O)c2ccc(F)cc2)c2ccccn12 , system sPLA2 IIA (Homo sapiens, UniProt P14555), measured pIC50 is < 5.00

----------
measured target: sPLA2 IIA (Homo sapiens, UniProt P14555)
Construct: purchased Cayman Chemical Company
assay overview: Phospholipase A2 (PLA2) inhibition assay, sPLA2 IIA
Assay type: biochemical
assay setup: Table 2; ratio of sPLA2 IIA IC50 to Lp-PLA2 IC50
Reported Selectivity Index (sPLA2/Lp-PLA2) values for a set of compounds

| mol | Selectivity Index (sPLA2/Lp-PLA2) |
| --- | --- |
| CC(=O)c1c(-c2ccccc2)c(C(=O)c2ccc(F)cc2)c2ccccn12 | >17.5 |

CC(=O)c1c(-c2ccccc2)c(C(=O)c2ccc(Br)cc2)c2ccccn12 tested on sPLA2 IIA (Homo sapiens, UniProt P14555) gave Selectivity Index (sPLA2/Lp-PLA2): >14.2

The recorded Selectivity Index (sPLA2/Lp-PLA2) with sPLA2 IIA (Homo sapiens, UniProt P14555) for CC(=O)c1c(-c2ccccc2)c(C(=O)c2ccc(Cl)cc2)c2ccccn12 was >10.6

Entry CC(=O)c1c(-c2ccccc2)c(C(=O)c2ccccc2)c2ccccn12 : Selectivity Index (sPLA2/Lp-PLA2) on sPLA2 IIA (Homo sapiens, UniProt P14555) = >19.6

# Selectivity Index (sPLA2/Lp-PLA2) measured on sPLA2 IIA (Homo sapiens, UniProt P14555) for item CC(=O)c1c(-c2ccccc2)c(C(=O)c2ccc(C)cc2)c2ccccn12 = >500
